biological target: T1, human CD3e/g (human, UniProt P07766 23-126; P09693 23-116); test: SPR (Carterra LSA), mAb on chip
T1 construct: Bought soluble protein; also called hCD3e/g; human CD3e/g (Acro CDD-C52W4)
T1 sequence (P07766 23-126, chain 1 of 2): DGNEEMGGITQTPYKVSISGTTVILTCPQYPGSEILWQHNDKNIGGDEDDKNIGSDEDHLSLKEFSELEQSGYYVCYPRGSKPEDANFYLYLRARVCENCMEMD
T1 sequence (P09693 23-116, chain 2 of 2): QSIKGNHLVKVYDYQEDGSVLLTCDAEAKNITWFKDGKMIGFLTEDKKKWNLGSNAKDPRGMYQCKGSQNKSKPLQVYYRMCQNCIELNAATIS
Item-by-item account of Kd
A complete answer gives the number followed by the unit.

{"columns": ["BINDER", "RESULT TYPE", "TEST VALUE"],
 "data": [
  ["mAb 95 (antibody, V domains shown, VH and VL only) VH: QAHLVESGGGVVQPGRSLRLSCSASGFTFSGYGMHWVRQAPGKGLEWVALIYFDGRNKYYADSVKGRFTISRDNSKNTLYLQMNSLRAEDTAVYYCARGGGYNWFDPWGQGTLVTVSS VL: DIQMTQSPSSLSASVGDRVTITCRASQSINNYLSWYQQKPGKAPKLLIYLASNLQSGVPSRFSGSGSGTDFTLTISSLQPEDFATYYCQLSYRSPFTFGPGTKVDVK", "Kd", "9.22 nM"],
  ["mAb 165 (antibody, V domains shown, VH and VL only) VH: EVQLVESGGGLVKTGGSLRLSCVASGFSFKKAWMNWVRQAPGKGLEWVGRIKRNTDGGTADYAAPVKGRFTLSRDDSKRTLYLQMNSLKTEDTAVYYCTTLDSSSRYVGYYYMDVWGKGTTVTVSS VL: DIQMTQSPSSVSASVGDRVIITCRASQDINNWLAWYQQKPGKVPKLLIYTASSLQSGVPSRFSGSGSGTDFTLTIGSLQPEDFATYYCQQAHSLPITFGQGTRLEIK", "Kd", "10.6 nM"]
]}

Proceed to the following item.
The binder identified as mAb 216 (antibody, V domains shown, VH and VL only) VH: QVQLVESGGGVVQPGRSLRLSCAASGFTFSGYGMHWVRQAPGKGLEWVAIIYYNGKKEYYADSVKGRFTISRDNSKNTLYLQMNSLRAEDTAVYYCTRGEGYNWFDPWGQGTLVTVSS VL: EIVMTQSPATLSVSPGERATLSCRASQSVSSNLAWYQQKPGQAPRLLIYGASTRATGIPARFSGSGSGTEFTLTISSLQSEDFAVYYCKQYKNWPLTFGGGTKVEIK registered its Kd at 6.8 nM
